- study-system: His6-TEV-PPARγ-(234-505) (Homo sapiens, UniProt P37231)
- Construct: The His6-TEV-PPARγ-(234-505) protein for assay was expressed and purified; TEV cleavage site (N); made in house
- Sequence (P37231 234-505): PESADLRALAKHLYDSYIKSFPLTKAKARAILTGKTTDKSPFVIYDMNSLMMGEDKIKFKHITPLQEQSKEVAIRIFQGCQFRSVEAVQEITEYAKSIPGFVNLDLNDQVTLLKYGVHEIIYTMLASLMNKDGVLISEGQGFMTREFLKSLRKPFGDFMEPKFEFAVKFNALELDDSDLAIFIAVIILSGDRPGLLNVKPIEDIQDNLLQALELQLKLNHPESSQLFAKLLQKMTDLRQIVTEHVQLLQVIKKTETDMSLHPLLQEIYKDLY
- assay-details: TR-FRET Assay to Measure Co-R Peptide Recruitment to PPARγ
- Assay type: biochemical
- setup-conditions: Co-R peptide (SMRT-ID2) recruitment; top final concentration 20 μM; read-out: TR-FRET i-Ag; AC50
Mark true only when AC50 stays strictly below 40 nM. Values equal to the cut-off are false.

> print(dat)
                                   compound                              study.system  class.assignment
1  COc1cc(-c2cc(C(=O)N3CCC(C(=O)NC4CCC(C)CC4)CC3)n[nH]2)ccn1 (mixture of isomers)  His6-TEV-PPARγ-(234-505) (Homo sapiens, UniProt P37231)             false
2  COc1cc(-c2cc(C(=O)N3CCC(C(=O)NCC4COC(C)(C)O4)CC3)n[nH]2)c(Cl)cn1 (racemic)  His6-TEV-PPARγ-(234-505) (Homo sapiens, UniProt P37231)             false
3  COc1cc(-c2cc(C(=O)N3CCC(C(=O)NCc4ccc5[nH]nc(C)c5c4)CC3)n[nH]2)c(F)cn1  His6-TEV-PPARγ-(234-505) (Homo sapiens, UniProt P37231)              true
4  COc1cc(-c2cc(C(=O)N3CCC(C(=O)NC4CCC(O)(C(F)(F)F)CC4)CC3)n[nH]2)c(Cl)cn1 (mixture of isomers)  His6-TEV-PPARγ-(234-505) (Homo sapiens, UniProt P37231)             false
5  COc1cc(-c2cc(C(=O)N3CCC(C(=O)NC4CCN(c5ncc(C#N)cn5)C4)CC34CC4)n[nH]2)c(F)cn1 (mixture of isomers)  His6-TEV-PPARγ-(234-505) (Homo sapiens, UniProt P37231)              true
6  COc1cc(-c2cc(C(=O)N3CCC(C(=O)NCc4nn(C)c5ccccc45)CC3)n[nH]2)c(Cl)cn1  His6-TEV-PPARγ-(234-505) (Homo sapiens, UniProt P37231)              true
